Details: 318.15 K; 101.33 kPa; Liquid
QUANTITY: viscosity (mPa·s)
Write the answer as a number in mPa·s, unit excluded.

Q: Given the entry CCCCn1cc[n+](C)c1.O=S(=O)([O-])O [1-butyl-3-methylimidazolium hydrogen sulfate] , report its measured viscosity.
A: 142.55

Q: Given the entry CCCC[n+]1ccc(C)cc1.F[B-](F)(F)F [1-butyl-4-methylpyridinium tetrafluoroborate] , report its measured viscosity.
A: 63.94

Q: Given the entry CCn1cc[n+](C)c1.COS(=O)(=O)[O-] [1-ethyl-3-methylimidazolium methylsulfate] , report its measured viscosity.
A: 42.42

Q: Given the entry CCCCn1cc[n+](C)c1.F[P-](F)(F)(F)(F)F [1-butyl-3-methylimidazolium hexafluorophosphate] , report its measured viscosity.
A: 93.44

Q: Given the entry CCCCCCCC[n+]1ccn(C)c1.F[P-](F)(F)(F)(F)F [1-octyl-3-methylimidazolium hexafluorophosphate] , report its measured viscosity.
A: 177.79

Q: Given the entry CC(C)C[P+](C)(CC(C)C)CC(C)C.Cc1ccc(S(=O)(=O)[O-])cc1 [triisobutylmethylphosphonium p-toluenesulfonate] , report its measured viscosity.
A: 422.49

Q: Given the entry CCCCCCn1cc[n+](C)c1.F[P-](F)(F)(F)(F)F [1-hexyl-3-methylimidazolium hexafluorophosphate] , report its measured viscosity.
A: 110.24

Q: Given the entry CCCCCCCC[n+]1ccn(C)c1.[Cl-] [1-methyl-3-octylimidazolium chloride] , report its measured viscosity.
A: 1967.6

Q: Given the entry COS(=O)(=O)[O-].Cn1cc[n+](C)c1 [1,3-dimethylimidazolium methylsulfate] , report its measured viscosity.
A: 32.52

---

Field: speed of sound. Provide a value for each of the compounds that follow.
Conditions: 308.15 K; 101.33 kPa; Liquid; Pulse-echo method
Write the answer as a number in m/s, unit excluded.

Q: Given the entry CCn1cc[n+](C)c1.COS(=O)(=O)[O-] [1-ethyl-3-methylimidazolium methylsulfate] , report its measured speed of sound.
A: 1738.7

Q: Given the entry COS(=O)(=O)[O-].Cn1cc[n+](C)c1 [1,3-dimethylimidazolium methylsulfate] , report its measured speed of sound.
A: 1787.3

Q: Given the entry CC(C)C[P+](C)(CC(C)C)CC(C)C.Cc1ccc(S(=O)(=O)[O-])cc1 [triisobutylmethylphosphonium p-toluenesulfonate] , report its measured speed of sound.
A: 1585.6

Q: Given the entry CCCCCCCC[n+]1ccn(C)c1.[Cl-] [1-methyl-3-octylimidazolium chloride] , report its measured speed of sound.
A: 1646.1

Q: Given the entry CCCCn1cc[n+](C)c1.O=S(=O)([O-])O [1-butyl-3-methylimidazolium hydrogen sulfate] , report its measured speed of sound.
A: 1664.3

Q: Given the entry CCCCCCCC[n+]1ccn(C)c1.F[P-](F)(F)(F)(F)F [1-octyl-3-methylimidazolium hexafluorophosphate] , report its measured speed of sound.
A: 1376.6

Q: Given the entry CCCC[n+]1ccc(C)cc1.F[B-](F)(F)F [1-butyl-4-methylpyridinium tetrafluoroborate] , report its measured speed of sound.
A: 1577.4

Q: Given the entry CCCCn1cc[n+](C)c1.F[P-](F)(F)(F)(F)F [1-butyl-3-methylimidazolium hexafluorophosphate] , report its measured speed of sound.
A: 1419.8

Q: Given the entry CCCCCCn1cc[n+](C)c1.F[P-](F)(F)(F)(F)F [1-hexyl-3-methylimidazolium hexafluorophosphate] , report its measured speed of sound.
A: 1399.6

---

Field: surface tension liquid-gas. Provide a value for each of the compounds that follow.
Conditions: 318.15 K, Ring tensiometer
Write the answer as a number in mN/m, unit excluded.

Q: Given the entry CCCCCCCC[n+]1ccn(C)c1.[Cl-] [1-methyl-3-octylimidazolium chloride] , report its measured surface tension liquid-gas.
A: 31.3

Q: Given the entry CCn1cc[n+](C)c1.COS(=O)(=O)[O-] [1-ethyl-3-methylimidazolium methylsulfate] , report its measured surface tension liquid-gas.
A: 38.8

Q: Given the entry CCCCn1cc[n+](C)c1.F[P-](F)(F)(F)(F)F [1-butyl-3-methylimidazolium hexafluorophosphate] , report its measured surface tension liquid-gas.
A: 41.7

Q: Given the entry COS(=O)(=O)[O-].Cn1cc[n+](C)c1 [1,3-dimethylimidazolium methylsulfate] , report its measured surface tension liquid-gas.
A: 56

---

Field: surface tension liquid-gas. Provide a value for each of the compounds that follow.
Settings: 313.15 K, Ring tensiometer
Write the answer as a number in mN/m, unit excluded.

Q: Given the entry COS(=O)(=O)[O-].Cn1cc[n+](C)c1 [1,3-dimethylimidazolium methylsulfate] , report its measured surface tension liquid-gas.
A: 56.4

Q: Given the entry CCn1cc[n+](C)c1.COS(=O)(=O)[O-] [1-ethyl-3-methylimidazolium methylsulfate] , report its measured surface tension liquid-gas.
A: 38.9

Q: Given the entry CCCCCCCC[n+]1ccn(C)c1.[Cl-] [1-methyl-3-octylimidazolium chloride] , report its measured surface tension liquid-gas.
A: 31.6

Q: Given the entry CCCCCCCC[n+]1ccn(C)c1.F[P-](F)(F)(F)(F)F [1-octyl-3-methylimidazolium hexafluorophosphate] , report its measured surface tension liquid-gas.
A: 35.3

Q: Given the entry CCCCCCn1cc[n+](C)c1.F[P-](F)(F)(F)(F)F [1-hexyl-3-methylimidazolium hexafluorophosphate] , report its measured surface tension liquid-gas.
A: 36.3

Q: Given the entry CCCCn1cc[n+](C)c1.F[P-](F)(F)(F)(F)F [1-butyl-3-methylimidazolium hexafluorophosphate] , report its measured surface tension liquid-gas.
A: 41.9

Q: Given the entry CCCC[n+]1ccc(C)cc1.F[B-](F)(F)F [1-butyl-4-methylpyridinium tetrafluoroborate] , report its measured surface tension liquid-gas.
A: 44.5

Q: Given the entry CCCCn1cc[n+](C)c1.O=S(=O)([O-])O [1-butyl-3-methylimidazolium hydrogen sulfate] , report its measured surface tension liquid-gas.
A: 42.4

Q: Given the entry CC(C)C[P+](C)(CC(C)C)CC(C)C.Cc1ccc(S(=O)(=O)[O-])cc1 [triisobutylmethylphosphonium p-toluenesulfonate] , report its measured surface tension liquid-gas.
A: 33.4

---

Settings: 298.15 K; 101.33 kPa; Liquid
± gives the expanded uncertainty stated by the source.
Field: viscosity. Provide a value for each of the compounds that follow.
Please report the result as a number followed by the unit.

Q: Given the entry CCCCn1cc[n+](C)c1.O=S(=O)([O-])O [1-butyl-3-methylimidazolium hydrogen sulfate] , report its measured viscosity.
A: 439.36 ± 53 mPa·s

Q: Given the entry CCCCCCCC[n+]1ccn(C)c1.[Cl-] [1-methyl-3-octylimidazolium chloride] , report its measured viscosity.
A: 13267 ± 4000 mPa·s

Q: Given the entry CCCCCCCC[n+]1ccn(C)c1.F[P-](F)(F)(F)(F)F [1-octyl-3-methylimidazolium hexafluorophosphate] , report its measured viscosity.
A: 603.44 ± 82 mPa·s

Q: Given the entry CC(C)C[P+](C)(CC(C)C)CC(C)C.Cc1ccc(S(=O)(=O)[O-])cc1 [triisobutylmethylphosphonium p-toluenesulfonate] , report its measured viscosity.
A: 2132.4 ± 430 mPa·s

Q: Given the entry COS(=O)(=O)[O-].Cn1cc[n+](C)c1 [1,3-dimethylimidazolium methylsulfate] , report its measured viscosity.
A: 71.7 ± 1.8 mPa·s

---

Settings: 303.15 K; 101.33 kPa; Liquid
± gives the expanded uncertainty stated by the source.
QUANTITY: viscosity

Q: Given the entry CCCCCCn1cc[n+](C)c1.F[P-](F)(F)(F)(F)F [1-hexyl-3-methylimidazolium hexafluorophosphate] , report its measured viscosity.
A: 253.96 ± 23 mPa·s

Q: Given the entry CCCCn1cc[n+](C)c1.F[P-](F)(F)(F)(F)F [1-butyl-3-methylimidazolium hexafluorophosphate] , report its measured viscosity.
A: 203.2 ± 16 mPa·s

Q: Given the entry CCCCCCCC[n+]1ccn(C)c1.F[P-](F)(F)(F)(F)F [1-octyl-3-methylimidazolium hexafluorophosphate] , report its measured viscosity.
A: 430.88 ± 51 mPa·s

Q: Given the entry CCCCn1cc[n+](C)c1.O=S(=O)([O-])O [1-butyl-3-methylimidazolium hydrogen sulfate] , report its measured viscosity.
A: 321.95 ± 33 mPa·s

Q: Given the entry CC(C)C[P+](C)(CC(C)C)CC(C)C.Cc1ccc(S(=O)(=O)[O-])cc1 [triisobutylmethylphosphonium p-toluenesulfonate] , report its measured viscosity.
A: 1363.2 ± 250 mPa·s

Q: Given the entry CCn1cc[n+](C)c1.COS(=O)(=O)[O-] [1-ethyl-3-methylimidazolium methylsulfate] , report its measured viscosity.
A: 76.8 ± 2 mPa·s

Q: Given the entry COS(=O)(=O)[O-].Cn1cc[n+](C)c1 [1,3-dimethylimidazolium methylsulfate] , report its measured viscosity.
A: 57.6 ± 0.97 mPa·s

Q: Given the entry CCCC[n+]1ccc(C)cc1.F[B-](F)(F)F [1-butyl-4-methylpyridinium tetrafluoroborate] , report its measured viscosity.
A: 146.57 ± 8.8 mPa·s

Q: Given the entry CCCCCCCC[n+]1ccn(C)c1.[Cl-] [1-methyl-3-octylimidazolium chloride] , report its measured viscosity.
A: 7770.4 ± 2100 mPa·s

Entry source: the NIST ThermoML archive (doi:10.1021/je500093z)
